Molecular target: 5HT2C receptors (Homo sapiens, UniProt P28335)
Sequence (P28335 33-458): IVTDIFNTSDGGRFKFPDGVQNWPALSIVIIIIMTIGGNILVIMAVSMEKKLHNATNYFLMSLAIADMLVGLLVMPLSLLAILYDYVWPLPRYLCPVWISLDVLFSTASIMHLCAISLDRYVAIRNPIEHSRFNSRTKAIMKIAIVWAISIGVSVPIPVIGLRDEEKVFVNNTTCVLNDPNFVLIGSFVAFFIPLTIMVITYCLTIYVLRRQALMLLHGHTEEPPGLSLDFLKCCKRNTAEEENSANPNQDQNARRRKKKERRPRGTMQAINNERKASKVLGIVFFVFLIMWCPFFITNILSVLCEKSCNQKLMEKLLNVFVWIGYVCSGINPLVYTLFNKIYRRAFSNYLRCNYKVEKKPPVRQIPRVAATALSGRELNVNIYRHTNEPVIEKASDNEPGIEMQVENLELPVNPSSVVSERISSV
Assay: Human 5-HT2C functional high throughput screening assay in CHO-K1 cells (calcium flux)
Type: cell-based
Design: expressed in transfected cells; host or cells: CHO-K1 cells
Settings: CHO-K1; 5-HT2C; maximum functional response as percentage relative to the effect of serotonin; read-out: Emax
parameter.measured: Emax

Some solved cases for reference:
| compound | Emax |
| --- | --- |
| COc1cc(F)ccc1-c1ccc2c(c1)C(=O)NC[C@@H]1CN(C)C[C@@H]21 (relative stereo) | 100% |
| CN1C[C@H]2CNC(=O)c3cc(-c4ccc5ccccc5c4)ccc3[C@@H]2C1 (relative stereo) | > 120% |
| CN1C[C@@H]2CNC(=O)c3cc(OCc4ccccc4F)ccc3[C@H]2C1 | > 120% |

In the following, a different compound is considered.
Challenge: # lookup: Emax of O=C1NC[C@@H]2CN(Cc3ccccc3)C[C@H]2c2ccc(-c3ccc(F)cc3)cc21 (relative stereo)
Response given: > 120%
